molecular target: T1, BMPRIa receptor-Fc fusion (UniProt P36894 24-152, limits assumed); assay: ELISA-like plate assay, captured BMP-7 from conditioned media, receptor-Fc detection
T1 construct: also called ALK-3
T1 sequence (P36894 24-152 limits assumed): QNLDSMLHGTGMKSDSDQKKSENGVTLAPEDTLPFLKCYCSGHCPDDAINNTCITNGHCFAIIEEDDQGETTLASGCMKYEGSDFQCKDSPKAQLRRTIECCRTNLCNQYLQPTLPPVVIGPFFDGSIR
Measured BMPRIa binding (relative to wild type = 1.0) of individual entries

Please review the entries below; each comes with its answer.
>  <Binder>
BMP-7 variant R48H (ligand, In conditioned media; numbering on mature BMP-7) STGGKQRSQNRSKTPKNQEALRMASVAENSSSDQRQACKKHELYVSFHDLGWQDWIIAPEGYAAYYCEGECAFPLNSYMNATNHAIVQTLVHFINPETVPKPCCAPTQLNAISVLYFDDSSNVILKKYRNMVVRACGCH

>  <Reported Result>
3.15 relative to wild type

$$$$
>  <Binder>
BMP-7 variant M23N (ligand, In conditioned media; numbering on mature BMP-7) STGGKQRSQNRSKTPKNQEALRNASVAENSSSDQRQACKKHELYVSFRDLGWQDWIIAPEGYAAYYCEGECAFPLNSYMNATNHAIVQTLVHFINPETVPKPCCAPTQLNAISVLYFDDSSNVILKKYRNMVVRACGCH

>  <Reported Result>
0.98 relative to wild type

$$$$
>  <Binder>
BMP-7 variant L90H (ligand, In conditioned media; numbering on mature BMP-7) STGGKQRSQNRSKTPKNQEALRMASVAENSSSDQRQACKKHELYVSFRDLGWQDWIIAPEGYAAYYCEGECAFPLNSYMNATNHAIVQTHVHFINPETVPKPCCAPTQLNAISVLYFDDSSNVILKKYRNMVVRACGCH

>  <Reported Result>
0.36 relative to wild type

$$$$

Please turn your attention to the following entry.
**Query** Identify measured BMPRIa binding (relative to wild type = 1.0) associated with BMP-7 variant F73Q (ligand, In conditioned media; numbering on mature BMP-7) STGGKQRSQNRSKTPKNQEALRMASVAENSSSDQRQACKKHELYVSFRDLGWQDWIIAPEGYAAYYCEGECAQPLNSYMNATNHAIVQTLVHFINPETVPKPCCAPTQLNAISVLYFDDSSNVILKKYRNMVVRACGCH
**Result** 1.05 relative to wild type

Measured values drawn from patent US20060058231A1 for this set.
